- assay.info: yeast display, Sf9 membrane polyspecificity reagent, FACS + sequencing; frameworks hold sequencing errors

seq.text	polyreactivity (PSR sort gate)
QVQLVESGGGLVQAGGILRLSCAASGRTFYYYAMGWYRHERGKERELVAAISISGGTNYADSVKGRFTISRDNAKNTVYLQMNSLKPEDTAVYYCAAYLRHESPSIWDRYDYWGQGTQVTVSS	low polyreactivity
QVQLVESGGGLVQAGGSLRLSCAASGSTFTINAMGWYRQAPGKERELVAAISRSGVRTFYADSVKGRFTNSRDNAKNTVYLQRNSLKPEDTAVYYCAKQTYRVTTDEGDYWGQGTQVTVSS	high polyreactivity
QVQLVESGGGLVQAGGSLRLSCASSGRTFLRYTMGWYRQAPGKERELVAAISYRGGTTYYADSVKGRFTISRDNGKNTVYLEMNSMKADETGVYYCAARNVGRTGSDFWGQGTQVTVSS	low polyreactivity
QVQLVETGGGLVQAGGSLRLSCAASGSTFWYNAMGWYRQAPGKESELVAAISRSGATTYYADSVKGRFTISRDNAKNTVYLQMNSLKPEDTAVYYCNKVRQYRYRGYTFDYWGQGTQVSVSS	low polyreactivity
QVQLVESGGGLVQAGGSLRLSCAASVSTFYSYVMGWSRQAPGKETELVAAITYSGGRTYYADSVKGRFTISRDNAKNTVYLQMNSLKPEDTAVYYCAKRVFNYQRYDYWGQGTQVTVSS	high polyreactivity
QVLLVESGRVLVQAGGSLRLSCAASVSIFANYAMARYIQAPGKERELVASITSSARRTFYADSVKGRFTISRDNAKNTVYLQMNSLKPEVTAVYYCAAKHRRRTVSTRYDDWGQGTQGTVSS	high polyreactivity
QVQLVESGGGLVQAGGSLRLSCAASGIIFYWYAMGWYRQAPGKERELVAAISASGASTYYADSVKGRFTISRDNAKNTVYLQMNSLKPEDTAVYYCAAEHPWSRYDYWGQGTQVTVSS	high polyreactivity
QVQLVESGGGLVQAGGSLRLSCAASGLTFSRYAMGWYRQAPGKERELVAAITWSGSSTYYADSVKGRFTISRDNAKNTVYLQMNSLKPEDTAVYYCAARYGYSRGPYYRSDYWGQGTQVNVSS	high polyreactivity
QVQLVESGGGLVQAGGSLRLSCAASGYTFYVYAMGWYRQAPGKERELVAAIRSGGTTYYADSVKGRFTISRDNAKYTVYLQMNSLKPEDTAVYYCAADVQDRYHRAWYDYWGQGTQVTVSS	low polyreactivity
QVQLVDSGGGLVQAGGSLRLSCADSGFTFSWNVMGRYRQAPGKEREYVAAISTSYGGRYYADSVKGRFTISRDNAKNTVDLQMNSLKPEDTAVYYCNDDIVGFQWGYDYWGQGTQVTVSA	low polyreactivity
QVQLVESGGGLVQAGGSLRLSCAASGSIMNNYAMGWYRQAPGKERELVAAISSSGGTNYADSVKGRFTISRDNAKNTVYLLMNSLKPEDTAVYYCNADVMDGGYDYWGQGTQVTVSS	low polyreactivity
